tested on: PfAP2-HC AP2 domain (GST-tagged); test: gcPBM binding intensity (ln(normalized median fluorescence intensity)); higher = stronger DNA binding
The full ranking holds about 25,000 sequences; the median of “ln(normalized median fluorescence intensity)” is about 9.7, and the highest 2% start at about 11. The full list was thinned out, with the highest values kept by preference.
Recorded gcPBM binding intensity (ln) for the following sequences
MEASURED PROPERTY: gcPBM binding intensity (ln)

> print(dat)
                              sequence.text             measured.property  meas.value
1  AAAAGAAAAAGAAAAACACACATAAATATAAATATA [CACACA_site1879]  gcPBM binding intensity (ln)        10.2
2  CAATCAAATGGACACACACACACCTAAACATAAAAG [CACACA_site5524]  gcPBM binding intensity (ln)        10.5
3  AAAAAAAACGGACACACACACATACCCATACATACA [CACACA_site5574]  gcPBM binding intensity (ln)        10.5
4  TATAGAAGCATTCACACACACACATACATACACATA [CACACA_site1466]  gcPBM binding intensity (ln)        10.6
5  ATCAAATAGAGACACACACACCTAAACATAAAAGAA [CACACA_site7321]  gcPBM binding intensity (ln)        10.6
6  TGTTTCTAAGAATTTACACACAAAATATTTCTACAT [CACACA_site7846]  gcPBM binding intensity (ln)         9.9
7  CAATCAAATAGACACACACACACCTAAACATAAAAG [CACACA_site7322]  gcPBM binding intensity (ln)        11.1
8  TAAAATTATGTAATAACACACATATACAATACATAT [CACACA_site1236]  gcPBM binding intensity (ln)        9.94
